Origin of the recorded values: patent US20060263354A1

Give measured pKd for each item. Keep answers brief.
- ASSAYED TARGET: mature GDF8 (UniProt O14793 267-375)
- Sequence (O14793 267-375): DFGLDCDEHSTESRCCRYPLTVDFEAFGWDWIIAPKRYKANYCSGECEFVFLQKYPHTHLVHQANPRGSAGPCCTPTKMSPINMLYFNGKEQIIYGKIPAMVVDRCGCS
- MEASUREMENT DESCRIPTION: BIAcore
One number for each entry, as −log10 of the molar value.

2-43-1 (antibody, V domains shown) VH: EVQLLESGGGLVQPGGSLRLSCAASGFTFSSYAMSWVRQAPGKGLEWVSAISGSGGSTFYADSVTGRFTISRDNSKNTLFLQLNSLRAEDTAVYHCAKDGRFNWNYGASDIWGQGTMVTVSS VL: EIVMTQSPATLSVSPGERATLSCRTSQSVSSNLAWYQQKPGQAPRLLIYGASTRATGIPARFSGSGSGTEFTLTISSLQSEDFAVYYCQQYNNWPLTFGGGTKVEIKR | 8.82
2-177-1 (antibody, V domains shown) VH: EVQLLESGGGLIQPGGSLRLSCAASGFTFSSFAMSWVRQAPGKGLEWVSTISGSGGSTYYADFVKGRFTISRDNSKNTLYLQMNSLRAEDTAVYYCAKDGRYNWNYGAFDIWGQGTMVTVSS VL: EIVMTQSPATLSVSPGERATLSCRASQSVRSNLAWFQQKPGQAPRLLIYGASTRATGIPARFSGSGSGTEFTLTISSLQSEDFAVYYCQQYNNWPLTFGGGTKVEIKR | 9.05

Okay, now this binder:
Input: Could you tell me which pKd is on file for 2-112-1 (antibody, V domains shown) VH: EVQLLESGGGLIQPGGSLRLSCAASGFTFSSFAMSWVRQAPGKGLEWVSTISGSGGYTFYADSVKGRFTISRDNSKNTLYLQMNSLRAEDTAVYYCAKDGRYNWNYGAFDIWGQGTMVTVSS VL: EIVMTQSPATLSVSPGERATLSCRASQSVSSNLAWYQQKPGQAPRLLIYGASTRATGFPARFSGSGSGTEFTLTISSLQSEDFAIYYCQQYNNWPLTFGGGTKVEIKR ?
Output: 10.96
